Parameter: Inhibition of binding (%). Scope: all listed entries.
- assayed.system: T1, human TSH receptor (full length), coated on tubes (human, UniProt P16473 22-764)
- T1 construct: TSHR coated tubes as described in WO2004/050708A2; The receptor is full length and held on plastic tubes through a mouse MAb to the TSHR; also called thyroid stimulating hormone receptor
- measurement.notes: inhibition of 125I-K1-70 Fab (competitor) binding to TSHR coated tubes; 0.1 µg/mL in assay buffer
# unit: % | format: bare number

Use these answered entries as a reference point.
binder	unit.annotation	Inhibition of binding (%)
K1-18 Fab (Fab, V domains shown) VH: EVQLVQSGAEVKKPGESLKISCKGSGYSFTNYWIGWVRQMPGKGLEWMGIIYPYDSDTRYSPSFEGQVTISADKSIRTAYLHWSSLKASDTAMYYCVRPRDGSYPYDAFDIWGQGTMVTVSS VL: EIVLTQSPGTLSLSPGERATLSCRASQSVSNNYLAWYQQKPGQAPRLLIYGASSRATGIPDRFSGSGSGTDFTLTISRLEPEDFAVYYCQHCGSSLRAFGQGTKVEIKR	%	62.9
K1-70 IgG (antibody, V domains shown, Human IgG1 lambda purified from hetero-hybridoma supernatant; also called human monoclonal autoantibody to the TSHR with TSH antagonist activity) VH: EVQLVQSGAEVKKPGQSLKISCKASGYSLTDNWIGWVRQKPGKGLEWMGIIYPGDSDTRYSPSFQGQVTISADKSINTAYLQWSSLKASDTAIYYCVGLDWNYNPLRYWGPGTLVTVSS VL: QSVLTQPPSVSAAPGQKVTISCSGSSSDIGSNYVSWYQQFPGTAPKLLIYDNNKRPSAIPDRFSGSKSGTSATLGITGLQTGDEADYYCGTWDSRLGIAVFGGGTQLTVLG	%	93.5
K1-70 Fab (Fab, V domains shown) VH: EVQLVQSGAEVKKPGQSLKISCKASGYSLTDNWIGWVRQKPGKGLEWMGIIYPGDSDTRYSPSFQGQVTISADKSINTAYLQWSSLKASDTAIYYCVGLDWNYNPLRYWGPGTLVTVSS VL: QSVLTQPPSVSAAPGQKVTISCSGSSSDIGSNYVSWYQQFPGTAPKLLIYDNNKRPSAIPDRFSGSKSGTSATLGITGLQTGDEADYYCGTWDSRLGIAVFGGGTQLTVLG	%	92.2

Please turn your attention to the following entry.
Item: K1-18 IgG (antibody, V domains shown, Human IgG1 kappa purified from hetero-hybridoma supernatant; also called human monoclonal autoantibody to the TSHR with TSH agonist activity) VH: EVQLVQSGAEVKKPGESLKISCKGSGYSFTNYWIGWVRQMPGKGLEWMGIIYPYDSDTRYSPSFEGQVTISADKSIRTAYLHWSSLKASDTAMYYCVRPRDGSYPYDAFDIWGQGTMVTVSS VL: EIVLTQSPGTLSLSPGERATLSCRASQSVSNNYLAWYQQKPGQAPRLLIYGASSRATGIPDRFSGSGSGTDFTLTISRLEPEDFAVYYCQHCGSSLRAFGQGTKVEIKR | Inhibition of binding (%): 83.6
